Values were extracted from patent US20240174618A1.

- Test system: Echinochloa crus-galli (ECHCG)
- ASSAY_NAME: A. Herbicidal pre-emergence efficacy, ECHCG
- Assay type: in vivo
- CONDITION_CONTEXT: 1280 g/ha; scored visually after about 3 weeks vs untreated controls
Form field: Pre-emergence efficacy against ECHCG (one value per entry).
ENDPOINT: Pre-emergence efficacy against ECHCG (%)

1) O=S(=O)(CCCC(F)(F)F)Oc1c(Br)cccc1Oc1ncc(F)cn1    100
2) O=S(=O)(CCCCl)Oc1ccccc1Oc1ccc(Cl)cn1    90
3) CCCS(=O)(=O)Oc1ccccc1Oc1ncc(Cl)cn1    100
4) CCC(C)S(=O)(=O)Oc1ccccc1Oc1ncc(Cl)cn1 (stereo not drawn)    90
5) O=S(=O)(CCCCl)Oc1ccccc1Oc1ncc(Cl)cc1F    100
6) O=S(=O)(CCCC(F)(F)F)Oc1c(Br)cccc1Oc1ncc(Cl)cn1    100
7) O=S(=O)(CCCCCl)Oc1ccccc1Oc1ncc(Cl)cn1    100
8) CC(C)CCS(=O)(=O)Oc1ccccc1Oc1ncc(Cl)cn1    100
9) COCCS(=O)(=O)Oc1ccccc1Oc1ncc(Cl)cn1    100
10) O=S(=O)(CC1CC1)Oc1ccccc1Oc1ncc(Cl)cn1    90
11) O=S(=O)(CCCC(F)(F)C(F)(F)F)Oc1c(F)cccc1Oc1ncc(Cl)cn1    100
12) Cc1cccc(Oc2ncc(F)cn2)c1OS(=O)(=O)CCC(F)(F)F    100
13) CCCCCS(=O)(=O)Oc1ccccc1Oc1ncc(Cl)cn1    100
14) Cc1cccc(Oc2ncc(Br)cn2)c1OS(=O)(=O)CCCC(F)(F)F    100
15) O=S(=O)(CCC(F)(F)F)Oc1c(F)cccc1Oc1ncc(F)cn1    100
